- Tested on: human neutrophils
- test.summary: Ca2+ mobilization in human neutrophils
- Type: cell-based
- experimental.parameters: % of response induced by 5 nM fMLF
Item-by-item account of Ca2+ mobilization hPMN efficacy
property: Ca2+ mobilization hPMN efficacy (%)

> print(dat)
                                   compound  units.of.measure  experimental.result
1  CCC(C(=O)Nc1ccc(Br)cc1)n1nc(C)cc(Cc2cccc(OC)c2)c1=O (racemic) [(±)-5b]                 %                  145
2  CCC[C@H](C(=O)Nc1ccc(Br)cc1)n1nc(C)cc(Cc2cccc(OC)c2)c1=O [R-(−)-5c]                 %                  145
3  COc1cccc(Cc2cc(C)nn([C@H](C)C(=O)Nc3ccc(Br)cc3)c2=O)c1 [R-(−)-5a]                 %                  110
4  COc1cccc(Cc2cc(C)nn([C@@H](C)C(=O)Nc3ccc(Br)cc3)c2=O)c1 [S-(+)-5a]                 %                   65

Source of measurements: paper PMC3565387
